Molecular target: EphA2-ephrin-A1 interaction (EphA2-Fc ectodomain) (Mus musculus, UniProt Q03145)
Sequence (Q03145 26-538 limits assumed): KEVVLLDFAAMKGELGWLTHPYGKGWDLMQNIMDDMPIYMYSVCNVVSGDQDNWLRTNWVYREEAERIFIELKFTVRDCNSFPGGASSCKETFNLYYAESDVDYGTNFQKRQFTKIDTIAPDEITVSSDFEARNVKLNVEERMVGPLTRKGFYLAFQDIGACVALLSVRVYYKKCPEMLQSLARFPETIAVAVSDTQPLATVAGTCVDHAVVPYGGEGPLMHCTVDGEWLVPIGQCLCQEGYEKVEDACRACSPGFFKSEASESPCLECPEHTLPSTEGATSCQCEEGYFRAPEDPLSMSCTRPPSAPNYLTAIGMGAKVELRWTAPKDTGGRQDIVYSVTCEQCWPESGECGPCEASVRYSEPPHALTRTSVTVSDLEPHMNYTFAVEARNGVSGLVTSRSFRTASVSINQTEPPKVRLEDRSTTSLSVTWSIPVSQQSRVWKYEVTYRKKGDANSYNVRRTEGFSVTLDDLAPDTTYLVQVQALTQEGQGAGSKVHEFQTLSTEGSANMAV
Assay type: binding
Details: tested starting from 200 μM
assay endpoint: Activity in EphA2-ephrin-A1 binding assay, in words

[[record]]
molecule = "C[C@H](CCC(=O)O)[C@H]1CC[C@H]2[C@@H]3CC[C@@H]4C[C@@H](S(=O)(=O)O)CC[C@]4(C)[C@H]3CC[C@]12C [Compound 11, (3β,5β)-3-sulfocholan-24-oic acid]"
measured_on = "EphA2-ephrin-A1 interaction (EphA2-Fc ectodomain) (Mus musculus, UniProt Q03145)"
meas_value = "inactive"

[[record]]
molecule = "C[C@H](CCC(=O)O)[C@H]1CC[C@H]2[C@@H]3[C@H](O)C[C@@H]4C[C@H](O)CC[C@]4(C)[C@H]3C[C@H](O)[C@]12C [Compound 2, cholic acid]"
measured_on = "EphA2-ephrin-A1 interaction (EphA2-Fc ectodomain) (Mus musculus, UniProt Q03145)"
meas_value = "inactive"

